Source listed as ChEMBL document CHEMBL1649173.

# assay-details: Cmax in fasted state healthy human at 400 mg, po administered as single dose
# Type: ADME, organism-based
# Set-up: dose 400 mg, route oral
# particulars: in vivo
reported-property: Cmax

molecule: COP(=O)(c1cc(C)cc(/C=C/C#N)c1)c1c(C(N)=O)[nH]c2ccc(Cl)cc12 (stereo unspecified)
reported-property: Cmax
val: 1100 ng/mL

---

# assay-details: Apparent total plasma clearance in healthy human at 800 mg, po qd after 7 days
# Format: ADME, organism-based
reported-property: CL/F

compound: COP(=O)(c1cc(C)cc(/C=C/C#N)c1)c1c(C(N)=O)[nH]c2ccc(Cl)cc12 (stereo unspecified)
reported-property: CL/F
val: 292 mL/min

---

# assay-details: Apparent total volume of distribution in fasted state healthy human at 50 mg, po administered as single dose
# Assay type: ADME, organism-based
# particulars: in vivo, read-out: Vz/F
reported-property: Vd/F (L)

molecule: COP(=O)(c1cc(C)cc(/C=C/C#N)c1)c1c(C(N)=O)[nH]c2ccc(Cl)cc12 (stereo unspecified)
reported-property: Vd/F
val: 53.3

---

# assay-details: Apparent total volume of distribution in fasted state healthy human at 400 mg, po administered as single dose
# Type: ADME, organism-based
# particulars: in vivo, read-out: Vz/F

compound: COP(=O)(c1cc(C)cc(/C=C/C#N)c1)c1c(C(N)=O)[nH]c2ccc(Cl)cc12 (stereo unspecified)
Vd/F: 606 L

---

# assay-details: Apparent total plasma clearance in healthy human at 400 mg, po bid after 7 days
# Assay type: ADME, organism-based

compound: COP(=O)(c1cc(C)cc(/C=C/C#N)c1)c1c(C(N)=O)[nH]c2ccc(Cl)cc12 (stereo unspecified)
quantity-unit: mL/min
CL/F: 268

---

# assay-details: Half life in fed state healthy human at 1200 mg, po administered as single dose
# Assay type: ADME, organism-based
# particulars: in vivo

molecule: COP(=O)(c1cc(C)cc(/C=C/C#N)c1)c1c(C(N)=O)[nH]c2ccc(Cl)cc12 (stereo unspecified)
half-life / h: 7.9

---

# assay-details: Half life in healthy human at 400 mg, po bid after 7 days
# Format: ADME, organism-based
# particulars: in vivo

molecule: COP(=O)(c1cc(C)cc(/C=C/C#N)c1)c1c(C(N)=O)[nH]c2ccc(Cl)cc12 (stereo unspecified)
quantity-unit: h
half-life: 12.3

---

# assay-details: AUC (0 to infinity) in fed state healthy human at 400 mg, po administered as single dose
# Assay type: ADME, organism-based
# Parameters: dose 400 mg, route oral, time infinity
# particulars: plasma
reported-property: AUC(0-inf) (ng·h/mL)

compound: COP(=O)(c1cc(C)cc(/C=C/C#N)c1)c1c(C(N)=O)[nH]c2ccc(Cl)cc12 (stereo unspecified)
val: 36000

---

# assay-details: Tmax in healthy human at 400 mg, po bid after 7 days
# Format: ADME, organism-based
# particulars: in vivo
reported-property: Tmax

molecule: COP(=O)(c1cc(C)cc(/C=C/C#N)c1)c1c(C(N)=O)[nH]c2ccc(Cl)cc12 (stereo unspecified)
val: 4 h

---

# assay-details: Tmax in fed state healthy human at 400 mg, po administered as single dose
# Assay type: ADME, organism-based
# particulars: in vivo

compound: COP(=O)(c1cc(C)cc(/C=C/C#N)c1)c1c(C(N)=O)[nH]c2ccc(Cl)cc12 (stereo unspecified)
Tmax: 7 h
